These entries and their values trace back to PubChem BioAssay AID1159580.

# EXPERIMENT SUMMARY: chemical genetic growth profiling, strain panel (AID 1159580);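 further: tested at 20 µM; growth read once vehicle control cultures reached saturation at 30 °C; 1 = growth at the plate median or of vehicle wells; lower values mean less growth of the strain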
# ASSAY CONTEXT: S. cerevisiae deletion strains, growth OD, locus YHR079C, strain IRE1 (second series), hits give low values
The whole screen tested about 5,500 compounds, of which about 2,000 (36%) were called active. About 18% were inconclusive and are not listed. Some of the results follow.
READOUT: normalized growth

{"MOLECULE": "CC12CCC3C(CCC4(O)CC(O)CCC34/C=N/NC(N)=O)C1(O)CCC2C1=CC(=O)OC1 (stereo unspecified)", "REPORTED RESULT": 0.988}
{"MOLECULE": "C[C@H]1O[C@@H](O[C@H]2[C@@H](O)C[C@H](O[C@H]3[C@@H](O)C[C@H](O[C@H]4CC[C@]5(C)C6CC[C@]7(C)[C@@H](C8=CC(=O)OC8)CC[C@]7(O)C6CC[C@@H]5C4)O[C@@H]3C)O[C@@H]2C)C[C@H](O)[C@@H]1O (stereo partly specified)", "REPORTED RESULT": 0.982}
{"MOLECULE": "C[C@@H]1O[C@@H](O[C@H]2CC[C@]3(C=O)C4CC[C@]5(C)[C@@H](C6=CC(=O)OC6)CC[C@]5(O)C4CC[C@]3(O)C2)[C@H](O)[C@H](O)[C@H]1O (stereo partly specified)", "REPORTED RESULT": 1.01}
{"MOLECULE": "NC(N)=Nc1ccc(Cl)cc1", "REPORTED RESULT": 1}
{"MOLECULE": "COC1C(O)C(O[C@H]2CC[C@]3(C=O)C4C(CC[C@]3(O)C2)[C@@]2(O)CC[C@H](C3=CC(=O)OC3)[C@@]2(C)C[C@H]4OC(C)=O)OC(C)C1OC(C)=O (stereo partly specified)", "REPORTED RESULT": 1.01}
{"MOLECULE": "C[C@]12CCC3C(CC[C@]4(O)C[C@@H](O)CC[C@]34C=O)[C@@]1(O)CCC2C1=CC(=O)OC1 (stereo partly specified)", "REPORTED RESULT": 0.98}

###

normalized growth values, listed per item
# EXPERIMENT SUMMARY: chemical genetic growth profiling, strain panel (AID 1159580);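 further: tested at 20 µM; growth read once vehicle control cultures reached saturation at 30 °C; 1 = growth at the plate median or of vehicle wells; lower values mean less growth of the strain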
# ASSAY CONTEXT: S. cerevisiae deletion strains, growth OD, locus YDR159W, strain sac3, hits give low values
Hit rate of the full screen: of about 5,500 compounds, about 2,000 (36%) were called active. Inconclusive results (about 18%) are left out. The list shows a part of the results.

{"COMPOUND": "O=c1c(O)cc([C@H]2Oc3cc(O)cc(O)c3C[C@H]2O)cc2c([C@H]3Oc4cc(O)cc(O)c4C[C@H]3O)cc(O)c(O)c12", "normalized growth": 1.1}
{"COMPOUND": "CC1=CC(=O)C(C(C)C)=CC1=O", "normalized growth": 0.773}
{"COMPOUND": "CC(=O)N1CCN(c2ccc(OCC3CO[C@](Cn4ccnc4)(c4ccc(Cl)cc4Cl)O3)cc2)CC1 (stereo partly specified)", "normalized growth": 0.135}
{"COMPOUND": "CCC(=O)O[C@]1(C(=O)CCl)[C@@H](C)CC2C3CCC4=CC(=O)C=C[C@]4(C)[C@@]3(F)[C@@H](O)C[C@@]21C (stereo partly specified)", "normalized growth": 1.02}
{"COMPOUND": "CC1Cc2ccccc2N1NC(=O)c1ccc(Cl)c(S(N)(=O)=O)c1 (stereo unspecified)", "normalized growth": 0.992}
{"COMPOUND": "C[C@@H](CO)NC(=O)C1C=C2c3cccc4[nH]cc(c34)C[C@H]2N(C)C1 (stereo partly specified)", "normalized growth": 0.937}
{"COMPOUND": "CN(C)CC[C@H](c1ccc(Cl)cc1)c1ccccn1", "normalized growth": 1}
{"COMPOUND": "COC(=O)N/N=C\\c1c[n+]([O-])c2ccccc2[n+]1[O-]", "normalized growth": 1.02}
{"COMPOUND": "C[N+]1(C)C[C@H](O)[C@H](C(=O)[O-])C1", "normalized growth": 1.02}
{"COMPOUND": "O=C1CC2(CCCC2)CC(=O)N1CCCCN1CCN(c2ncccn2)CC1", "normalized growth": 0.985}
{"COMPOUND": "O=C(Oc1ccccc1C(=O)O)c1ccccc1O", "normalized growth": 0.978}
{"COMPOUND": "C[C@@H]1CCC2[C@](C)(CO)[C@@H](O)CC[C@]2(C)[C@@]12CC[C@@](CO)(CCO)O2 (stereo partly specified)", "normalized growth": 0.933}
{"COMPOUND": "O=C(CCCN1CCN(c2ccccn2)CC1)c1ccc(F)cc1", "normalized growth": 0.996}
{"COMPOUND": "C=CCSSCC=C", "normalized growth": 1.08}
{"COMPOUND": "CCCCC(=O)O[C@]1(C(=O)CO)[C@@H](C)CC2C3CCC4=CC(=O)C=C[C@]4(C)[C@@]3(F)C(O)C[C@@]21C (stereo partly specified)", "normalized growth": 0.974}
{"COMPOUND": "CCC(=O)OCC(=O)[C@@]1(OC(=O)CC)[C@@H](C)CC2C3CCC4=CC(=O)C=C[C@]4(C)C3(F)[C@@H](O)C[C@@]21C (stereo partly specified)", "normalized growth": 1.01}
{"COMPOUND": "CC(=O)O[C@@H]1c2c(ccc3ccc(=O)oc23)OC(C)(C)[C@@H]1OC(=O)CC(C)C", "normalized growth": 0.974}
{"COMPOUND": "NC(=O)c1ccc([N+](=O)[O-])cc1Cl", "normalized growth": 0.931}
{"COMPOUND": "NC(=O)c1cc([N+](=O)[O-])cc([N+](=O)[O-])c1", "normalized growth": 1.04}
{"COMPOUND": "Cc1cc(N)c2ccccc2[n+]1CCCCCCCCCC[n+]1c(C)cc(N)c2ccccc21", "normalized growth": 0.0966}
{"COMPOUND": "C/C=C(\\C)C(=O)O[C@@H]1c2c(ccc3ccc(=O)oc23)OC(C)(C)[C@@H]1OC(C)=O", "normalized growth": 0.989}
{"COMPOUND": "NC[C@H]1O[C@H](O[C@H]2[C@H](O)[C@@H](O[C@H]3O[C@H](CO)[C@@H](O)[C@H](N)[C@H]3O)[C@H](N)C[C@@H]2N)[C@H](N)[C@@H](O)[C@@H]1O", "normalized growth": 0.983}
{"COMPOUND": "C[C@H]1[C@H](C)CC[C@]2(C(=O)O)CC[C@]3(C)C(=CCC4[C@@]5(C)C[C@@H](O)[C@H](O)[C@@](C)(CO)C5CC[C@]43C)[C@H]12 (stereo partly specified)", "normalized growth": 0.983}
{"COMPOUND": "CCCc1nc(C)c2c(=O)[nH]c(-c3cc(S(=O)(=O)N4CCN(CC)CC4)ccc3OCC)nn12", "normalized growth": 0.93}
{"COMPOUND": "CC1(C)S[C@@H]2C(N3C(=O)[C@@H](c4ccccc4)NC3(C)C)C(=O)N2[C@H]1C(=O)O (stereo partly specified)", "normalized growth": 0.958}
{"COMPOUND": "CCC(=O)OCC(=O)C1(OC(=O)CC)C(C)CC2C3C(Cl)CC4=CC(=O)C=CC4(C)C3C(O)CC21C (stereo unspecified)", "normalized growth": 1.01}
